Let's look at some compounds and their measured TGI.
system: OVCAR-8 ovarian; experiment: NCI tumour cell line growth inhibition, 48 h
measured-attribute: TGI

{"compound": "COC(=O)CCC1=C(CC(=O)OC)C(C)(OC)N=C1NC(=O)OCc1ccccc1 (stereo not given)", "subject-of-test": "OVCAR-8 ovarian", "measured-attribute": "TGI", "test-value": "> 100 µM"}
{"compound": "O=C(NOC[C@H](O)CO)c1ccc(F)c(F)c1Nc1ccc(I)cc1F", "subject-of-test": "OVCAR-8 ovarian", "measured-attribute": "TGI", "test-value": "> 100 µM"}
{"compound": "CC1(C)OC2[C@@H](CO[C@@]3([C@@H](O)CCO)OC(C)(C)O[C@@H]23)O1 (stereo not given in full)", "subject-of-test": "OVCAR-8 ovarian", "measured-attribute": "TGI", "test-value": "> 100 µM"}
{"compound": "COc1ccc(-n2[nH]nc(C(N)=O)c2=O)cc1", "subject-of-test": "OVCAR-8 ovarian", "measured-attribute": "TGI", "test-value": "> 100 µM"}
{"compound": "NC(=S)/N=C(/c1nc2ccc(Cl)cc2[nH]c1=O)C(O)c1ccccc1Cl (stereo not given)", "subject-of-test": "OVCAR-8 ovarian", "measured-attribute": "TGI", "test-value": "> 100 µM"}

====

test system: EKVX NSCLC; test: NCI tumour cell line growth inhibition, 48 h

{"compound": "c1ccc2c(c1)c1c(n2CCOCCN2CCCC2)CCCC1", "TGI": "75.2 µM"}
{"compound": "C/C(=N\\N=C(\\N)SB(F)F)c1ccc2ccccc2c1", "TGI": "> 100 µM"}
{"compound": "O=[N+]([O-])c1ccc2c(c1)N([O-])C1(CCCCC1)[N+]2=O", "TGI": "29.6 µM"}
{"compound": "COc1ccc(N=NC(C(=O)c2ccccc2)C(=O)c2ccccc2)cc1", "TGI": "71.1 µM"}
{"compound": "S=c1snc2n1CCN2", "TGI": "> 100 µM"}
{"compound": "CC(=O)N/N=C1\\CC(C)(C)C2CCC1C2 (stereo unspecified)", "TGI": "> 100 µM"}
{"compound": "CCC(=O)c1c(NOC2OCC(OC(C)=O)C(OC(C)=O)C2OC(C)=O)nc(OC)n(C)c1=O (stereo unspecified)", "TGI": "> 100 µM"}
{"compound": "NC1=C(NC(=O)Cc2ccccc2F)C(=O)c2ccccc2C1=O", "TGI": "> 100 µM"}
{"compound": "O=S(=O)(NCCNc1nccc(-c2c(-c3ccc(F)c(O)c3)nc3sccn23)n1)c1ccc(F)cc1", "TGI": "60.6 µM"}
{"compound": "O=C(NCCN1CCOCC1)c1cn2c(ccc3sc4ccccc4c(=O)c32)n1", "TGI": "> 100 µM"}
{"compound": "COC12CCC(=O)C=C1c1ccccc1N2C(C)=O (stereo unspecified)", "TGI": "> 100 µM"}

====

Consider the following compounds and their measured TGI readings.
tested on: KM12 colon; assay: NCI tumour cell line growth inhibition, 48 h

{"compound": "CCc1ccc(NC(=O)NC(=O)c2ccccc2[N+](=O)[O-])cc1Oc1ncc(Cl)cn1", "TGI": "0.728 µM"}
{"compound": "COC(=O)C1C(O)CCC2CN3CCc4c([nH]c5ccccc45)C3CC21 (stereo not drawn)", "TGI": "> 100 µM"}
{"compound": "O=C(OC1C2OC(=O)c3cc(O)c(O)c(O)c3Oc3cc4c(c(O)c3O)-c3c(cc(O)c(O)c3O)C(=O)OCC3OC(O)C(OC(=O)c5cc(O)c(O)c(O)c5Oc5cc6c(c(O)c5O)-c5c(cc(O)c(O)c5O)C(=O)OC1C(COC6=O)OC2O)C(OC(=O)c1cc(O)c(O)c(O)c1)C3OC4=O)c1cc(O)c(O)c(O)c1 (stereo not drawn)", "TGI": "16.2 µM"}

====

system: HCT-15 colon; experiment: NCI tumour cell line growth inhibition, 48 h; in the data active means GI50 below about 0.43 µM; inactive means the rest
Labels: active, inactive

{"compound": "CCOC(=O)c1[nH]c(Br)c(-c2ccc(OC)c(OC)c2)c1Br", "group-label": "active"}
{"compound": "O=[N+]([O-])c1cc(Cl)c2[nH]c3c(Cl)cc([N+](=O)[O-])cc3c2c1", "group-label": "active"}
{"compound": "CCC(O)c1ccc(Br)cc1NC(=O)c1cccc(Cl)c1 (centres undefined)", "group-label": "inactive"}
{"compound": "CS(=O)(=O)CCNCc1cc(-c2cc3c(Nc4ccc(OCc5cccc(F)c5)c(Cl)c4)ncnc3s2)cs1", "group-label": "inactive"}
{"compound": "O=C(Nc1cc(C(F)(F)F)ccc1Cl)c1ccc(NC2=C(Cl)C(=O)N(Cc3ccccc3)C2=O)cc1", "group-label": "inactive"}
{"compound": "CCC[CH2][Sn]([Cl])([Cl])[CH2]CCC", "group-label": "inactive"}
{"compound": "COc1ccc(NC(=O)CSC2=C(Nc3cccc(Br)c3)C(=O)N(Cc3ccccc3)C2=O)cc1Cl", "group-label": "inactive"}
{"compound": "FC(F)(c1ccc2ncccc2c1)c1nnc2ccc(-c3ccncc3)nn12", "group-label": "inactive"}
{"compound": "NS(=O)(=O)c1ccc(-n2nc3c(c2-c2ccc(Cl)cc2)Cc2ccccc2-3)cc1", "group-label": "inactive"}
{"compound": "C[C@@H]1C[C@H](C)CN(S(=O)(=O)c2ccc3c(NO)c4ccc(S(=O)(=O)N5C[C@H](C)C[C@H](C)C5)cc4c(N=O)c3c2)C1", "group-label": "active"}
{"compound": "O=c1c2cc(F)ccc2sc2c(N3CCNCC3)nc3ccc(F)cc3c12", "group-label": "inactive"}
{"compound": "COc1cccc(/C(C#N)=C/c2nc3c(N4CCOCC4)nc(Cl)nc3n2C)c1", "group-label": "active"}
{"compound": "CC[n+]1oc(C(=O)c2ccc(Cl)cc2)c(-c2ccccc2)c1-c1ccccc1.[Cl][Fe]([Cl])([Cl])[Cl]", "group-label": "inactive"}
{"compound": "O=C(O)c1ccc(NCn2nc(-c3ccccc3O)oc2=S)cc1", "group-label": "inactive"}

====

test system: OVCAR-8 ovarian; experiment: NCI tumour cell line growth inhibition, 48 h; in the data active = GI50 below about 0.43 µM; inactive = the rest
Possible outcomes: active, inactive

{"compound": "O=S(=O)(NCCNc1nccc(-c2c(-c3ccc(F)c(O)c3)nc3sccn23)n1)c1ccc(F)cc1", "group-label": "inactive"}
{"compound": "CCOC(=O)c1[nH]c(Br)c(-c2ccc(OC)c(OC)c2)c1Br", "group-label": "active"}
{"compound": "NS(=O)(=O)c1ccc(-n2nc3c(c2-c2ccc(Cl)cc2)Cc2ccccc2-3)cc1", "group-label": "inactive"}
{"compound": "CC(=O)Oc1ccc(C23c4ccccc4C2(OC(C)=O)c2cc(OC(C)=O)ccc23)cc1 (stereo not drawn)", "group-label": "inactive"}
{"compound": "COc1cc2nc(SCc3cc(OC)c(OC)c(OC)c3)n(Cc3ccccc3)c(=O)c2cc1OC", "group-label": "inactive"}
{"compound": "COc1cc(F)c(F)c(Nc2ccc(I)cc2F)c1NS(=O)(=O)C1(C[C@H](O)CO)CC1", "group-label": "inactive"}
{"compound": "CCC(O)c1ccc(Br)cc1NC(=O)c1cccc(Cl)c1 (stereo not drawn)", "group-label": "inactive"}
{"compound": "COc1ccc(-c2cs/c(=N\\N=C\\c3ccc(O)cc3O)n2/N=C/c2ccc(O)cc2O)cc1", "group-label": "inactive"}
{"compound": "CC(=O)c1ccc2c(c1)C1C=CCC1[C@H](c1cc3c(cc1Br)OCO3)N2 (stereo partly drawn)", "group-label": "inactive"}
{"compound": "COc1ccc2c(=O)cc(-c3ccccc3)[nH]c2c1", "group-label": "inactive"}
{"compound": "Cc1nc(-c2ccccc2)n2nc(NCCCN3CCOCC3)ncc12", "group-label": "inactive"}
{"compound": "CC(=O)c1c(C)nc(SSc2nc(C)c(C(C)=O)c(-c3ccc(Cl)cc3)c2C#N)c(C#N)c1-c1ccc(Cl)cc1", "group-label": "inactive"}
{"compound": "Cn1c(C(=O)c2ccncc2)cc2ccccc21", "group-label": "inactive"}

====

system: A498 renal; assay: NCI tumour cell line growth inhibition, 48 h
measured-attribute: TGI

{"molecule": "CN(CCCCCl)P(=O)(OCCS(=O)(=O)CC(NC(=O)CCC(N)C(=O)O)C(=O)NC(C(=O)O)c1ccccc1)OCC1OC(n2ccc(N)nc2=O)C(F)(F)C1O (stereo not given)", "subject-of-test": "A498 renal", "test-value": "> 100 µM"}
{"molecule": "COc1ccc2nc(-c3ccccc3)cc(OCC(=O)O)c2c1", "subject-of-test": "A498 renal", "test-value": "> 100 µM"}
{"molecule": "CCC(=O)c1c(NOC2OCC(OC(C)=O)C(OC(C)=O)C2OC(C)=O)nc(OC)n(C)c1=O (stereo not given)", "subject-of-test": "A498 renal", "test-value": "> 100 µM"}
{"molecule": "N/N=C1\\C(=O)N(C2CCCCCC2)C(=O)C1C(=O)NC1CCCCCC1 (stereo not given)", "subject-of-test": "A498 renal", "test-value": "> 100 µM"}
{"molecule": "CN(C)CCNc1ccc(CO)c2sc3ccc(O)cc3c(=O)c12", "subject-of-test": "A498 renal", "test-value": "20.4 µM"}
{"molecule": "CCOC(=O)C(=O)Nc1ccccc1C", "subject-of-test": "A498 renal", "test-value": "> 100 µM"}
{"molecule": "COc1cccc(/C(C#N)=C/c2nc3c(N4CCOCC4)nc(Cl)nc3n2C)c1", "subject-of-test": "A498 renal", "test-value": "2.91 µM"}
{"molecule": "CC(=O)N/N=C1\\CC(C)(C)C2CCC1C2 (stereo not given)", "subject-of-test": "A498 renal", "test-value": "> 100 µM"}
{"molecule": "O=S(=O)(Nc1nc2ccccc2nc1Nc1ccc2ccccc2c1)c1ccccc1", "subject-of-test": "A498 renal", "test-value": "> 100 µM"}
{"molecule": "O=C(c1nc2ccc([N+](=O)[O-])cc2[nH]c1=O)C(O)c1ccc2c(c1)OCO2 (stereo not given)", "subject-of-test": "A498 renal", "test-value": "> 100 µM"}
